Test system: sDMA methylation in Granta-519 cells
Experiment: sDMA western blot, 10 kDa band to total SmD3
Format: cell-based
Settings: Homo sapiens, 96 h, day 4, N = 1, read-out: sDMA Western blot IC50 10 kDa Band
Description: The measurement of the 10 kDa band was used to calculate the methylation IC50 values. […] Concentration-dependent decreases in the 10 kDa band were observed on day 4 in all cell lines tested with representative western blots shown for Z-138 and Maver-1 cell lines (FIG. 1). Levels of the 10 kDa band from the western blots were quantified by densitometry and ratios of 10 kDa band (postulated to be SmD3me2s) to total SmD3 were calculated to determine the IC50s (Table 2, n=1 for all samples).

[
  {
    "compound": "CC(=O)N1CCC(Nc2cc(C(=O)NC[C@H](O)CN3CCc4ccccc4C3)ccn2)CC1 [Formula B]",
    "IC50 / nM": 0.3
  }
]
